Each entry below lists one item and its recorded 3′ tail length value.
Target: terminal deoxynucleotidyl transferase (Bos taurus, UniProt P06526)
Sequence (P06526 whole entry): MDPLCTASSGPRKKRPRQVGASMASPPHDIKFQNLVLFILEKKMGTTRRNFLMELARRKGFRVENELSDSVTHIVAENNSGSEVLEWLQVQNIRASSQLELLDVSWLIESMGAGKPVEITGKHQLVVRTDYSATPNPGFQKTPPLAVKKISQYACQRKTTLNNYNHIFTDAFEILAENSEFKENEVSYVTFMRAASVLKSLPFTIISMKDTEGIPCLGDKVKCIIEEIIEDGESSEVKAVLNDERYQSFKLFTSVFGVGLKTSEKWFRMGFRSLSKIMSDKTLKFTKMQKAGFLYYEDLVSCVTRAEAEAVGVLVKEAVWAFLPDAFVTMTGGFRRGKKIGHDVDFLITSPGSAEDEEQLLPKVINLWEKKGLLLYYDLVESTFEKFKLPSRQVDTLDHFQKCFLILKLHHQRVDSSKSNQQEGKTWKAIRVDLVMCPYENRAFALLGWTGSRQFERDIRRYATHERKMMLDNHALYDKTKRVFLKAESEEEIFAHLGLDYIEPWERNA
Assay: oligonucleotide tailing reaction with terminal deoxynucleotidyl transferase
Format: biochemical
Settings: 32 μM nucleotide, 25 U terminal deoxynucleotidyl transferase, 15 mer primer, 90 minutes at 37° C.

Here are 2 compounds together with their reported answers.
O=C(CCCCCNC(=O)c1ccc2c(c1)C(=O)OC21c2ccc(O)cc2Oc2cc(O)ccc21)NCc1cc2cn([C@H]3C[C@H](O)[C@@H](COP(=O)(O)OP(=O)(O)OP(=O)(O)O)O3)c(=O)nc2[nH]1 [Compound 10.1b] | 18-24 bases
NCCCCCC(=O)NCc1cc2cn([C@H]3C[C@H](O)[C@@H](COP(=O)(O)OP(=O)(O)OP(=O)(O)O)O3)c(=O)nc2o1 [Compound 4.3a] | 7-9 bases

Give its 3′ tail length value. Item: NCCCCCC(=O)NCc1cc2cn([C@H]3C[C@H](O)[C@@H](COP(=O)(O)OP(=O)(O)OP(=O)(O)O)O3)c(=O)nc2[nH]1 [Compound 10.1a]
7-8 bases

Give its 3′ tail length value. Item: O=C(CCCCCNC(=O)c1ccc2c(c1)C(=O)OC21c2ccc(O)cc2Oc2cc(O)ccc21)NCc1cc2cn([C@H]3C[C@H](O)[C@@H](COP(=O)(O)OP(=O)(O)OP(=O)(O)O)O3)c(=O)nc2o1 [Compound 4.3b]
9-14 bases
